Tested on: M375 melanoma cells
Assay: Cell viability assay (CellTiter-Glo)
Format: cell-based
Conditions: Homo sapiens; M375; 72 hours treatment
Listed compounds paired with reported pIC50
// pIC50 is dimensionless: -log10 of concentration (M)

Cc1oncc1C(=O)Nc1ccc(C(F)(F)F)cc1 [Leflunomide, leflunomide]: 4.19

As a next step, examine the compound that follows.
[Q] Consider the compound shown here: Cn1cnc2c(F)c(Nc3ccc(Br)cc3Cl)c(C(=O)NOCCO)cc21 What is its recorded pIC50?
[A] 7.00

====

Test system: M202 melanoma cells
Assay: Cell viability assay (CellTiter-Glo)
Type: cell-based
Conditions: Homo sapiens, 72 hours treatment
property name: pIC50
// pIC50 is dimensionless: -log10 of concentration (M)

Cc1oncc1C(=O)Nc1ccc(C(F)(F)F)cc1 [Leflunomide, leflunomide]: 4.17
Cn1cnc2c(F)c(Nc3ccc(Br)cc3Cl)c(C(=O)NOCCO)cc21: 6.30

As a next step, examine the compound that follows.
[Q] Give M202 melanoma cells pIC50 for CCCS(=O)(=O)Nc1ccc(F)c(C(=O)c2c[nH]c3ncc(-c4ccc(Cl)cc4)cc23)c1F
[A] 5.77
